Just for reference, patent US6525059B1 is where these values come from.

Measured melting point, listed per entry for reference.

>  <molecule_smiles>
Fc1ccc(-c2n[nH]cc2-c2ccnc(NCc3ccccc3)n2)cc1

>  <melting point>
216 to 217 °C

$$$$
>  <molecule_smiles>
CNC(=O)CSc1[nH]nc(-c2ccc(Cl)cc2)c1-c1ccncc1

>  <melting point>
284 to 288.4 °C

$$$$
>  <molecule_smiles>
Cc1cccc(-c2[nH]ncc2-c2ccncn2)c1

>  <melting point>
151.67 °C

$$$$
>  <molecule_smiles>
CCN(CC)c1n[nH]c(-c2ccc(Cl)cc2)c1-c1ccncc1

>  <melting point>
260 to 261 °C

$$$$
>  <molecule_smiles>
CN1CCC(Oc2[nH]nc(-c3ccc(Cl)cc3)c2-c2ccncc2)CC1

>  <melting point>
255.9 to 256.8 °C

$$$$
>  <molecule_smiles>
Cc1nn(C)c(-c2ccc(Cl)cc2)c1-c1ccncc1

>  <melting point>
88.6 °C

$$$$
>  <molecule_smiles>
COC(=O)c1cc(-c2c[nH]nc2-c2ccc(F)cc2)ccn1

>  <melting point>
239 to 241 °C

$$$$
>  <molecule_smiles>
CN1CCN(c2n[nH]c(-c3ccc(C(F)(F)F)cc3)c2-c2ccncc2)CC1

>  <melting point>
240.5 °C (dec.)

$$$$
>  <molecule_smiles>
Cc1cccc(-c2n[nH]c(N3CCN(C)CC3)c2-c2ccncc2)c1

>  <melting point>
261.9 to 262 °C

$$$$
